I'd be grateful if you could share measured binding signal for these entries.
Biological target: OsWOX13 (Oryza sativa, UniProt Q5QMM3 1-267)
Sequence: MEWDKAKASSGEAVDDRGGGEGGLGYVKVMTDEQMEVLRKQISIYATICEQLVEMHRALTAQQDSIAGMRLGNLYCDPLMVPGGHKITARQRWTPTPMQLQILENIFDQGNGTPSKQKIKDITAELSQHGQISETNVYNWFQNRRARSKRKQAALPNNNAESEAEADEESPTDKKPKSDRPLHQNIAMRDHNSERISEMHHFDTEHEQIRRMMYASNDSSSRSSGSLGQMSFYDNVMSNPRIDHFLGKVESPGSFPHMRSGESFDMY
Test: protein-binding microarray (RPBM); PBS, 2% BSA, 51.3 ng/ul salmon testes DNA, 50 uM zinc acetate, 200 nM TF, 25 C, 1 h; high values mean tight binding
Settings: protein: recombinant; tags: N-terminal polyhistidine and DsRed monomer fusion (pET32a); label: CyDye5-dUTP incorporated in the synthesized complementary strand; 3' TTTTT single-stranded linker to array surface; dsDNA, one strand shown
In all, about 35,000 sequences were measured (“fluorescence intensity (a.u.)”: median about 10,000, highest 2% from about 52,000 on). The sample as a whole holds a higher share of the highest values than the screen did.

For each of the items listed, what is its binding signal?
1. TCTTGATTGGTTGTTTTGGTTTGTTTCTTATTTATGTTTGCGGAGTCACCTAGTGCAG
2. GTAAATTGGCATTGGTTTGATTTATGTTTGCAATGCAGCGCGGAGTCACCTAGTGCAG
3. TGGTTAATTTAGCTTCTCCCCTTTCTCGTGTCCTTAGATTCGGAGTCACCTAGTGCAG
4. TGTTAATTTGAAATTTGGAAGATGTAATTAACTGTTGCCACGGAGTCACCTAGTGCAG
5. CCTGACATCTCTCAATCGGACGGTGGATACCACCTCACCGCGGAGTCACCTAGTGCAG

1. 54100 fluorescence intensity (a.u.)
2. 58200 fluorescence intensity (a.u.)
3. 10200 fluorescence intensity (a.u.)
4. 46900 fluorescence intensity (a.u.)
5. 3620 fluorescence intensity (a.u.)

====

Biological target: OsWOX13 (Oryza sativa, UniProt Q5QMM3 1-267)
Sequence: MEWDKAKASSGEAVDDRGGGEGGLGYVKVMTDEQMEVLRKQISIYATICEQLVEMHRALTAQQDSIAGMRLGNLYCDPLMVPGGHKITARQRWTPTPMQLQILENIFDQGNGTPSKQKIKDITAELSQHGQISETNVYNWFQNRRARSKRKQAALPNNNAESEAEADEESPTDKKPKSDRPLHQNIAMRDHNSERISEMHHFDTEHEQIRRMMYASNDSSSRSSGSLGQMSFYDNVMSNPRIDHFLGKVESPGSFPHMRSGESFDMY
Experiment: protein-binding microarray (RPBM); PBS, 2% BSA, 51.3 ng/ul salmon testes DNA, 50 uM zinc acetate, 200 nM TF, 25 C, 1 h; high values mean tight binding
Details: protein: recombinant; tags: N-terminal polyhistidine and DsRed monomer fusion (pET32a); label: CyDye5-dUTP incorporated in the synthesized complementary strand; 3' TTTTT single-stranded linker to array surface; dsDNA, one strand shown
The full ranking holds about 35,000 sequences; the median of “fluorescence intensity (a.u.)” is about 10,000, and the highest 2% start at about 52,000. The entries come from a sample that favours the highest values as a whole.
endpoint_label: binding signal

Use the examples below as a reference point.
The reported binding signal of the sequence ATAAATTAATCCAGGCGTGATCTCCCGGCGCCCGCACGCGCGGAGTCACCTAGTGCAG was 7300 fluorescence intensity (a.u.)

The reported binding signal of the sequence ATGTGTAAATTGAATTAATGGAGTTGGTTGTGAAATCGTTCGGAGTCACCTAGTGCAG was 25300 fluorescence intensity (a.u.)

For each of the items listed, what is its binding signal?
1. GAATGGTCCAACAAGGAGACTGAGGAATGGTCAACACATTCGGAGTCACCTAGTGCAG
2. ATTAATTAACAATAATAAGTGATTAATAATTAATTAATCGCGGAGTCACCTAGTGCAG
3. TTAATTAACGCGATTAATTAGCCGCAAATCTCAATCCAGGCGGAGTCACCTAGTGCAG
4. ACAATTTGATTGCTTCCTTTCAACATTGTGGTTGGTGATCCGGAGTCACCTAGTGCAG
5. GCAATCAATCAATCAATCATATATCCATATCAAATTAAGCCGGAGTCACCTAGTGCAG
6. TATTCAAATCATTTAAGTAATTATTTATTCTTTTCATATCCGGAGTCACCTAGTGCAG
7. CCCTCCAATCAAATTAACCTCCATATCTCTAGCAATCTGCCGGAGTCACCTAGTGCAG

1: 59700 fluorescence intensity (a.u.); 2: 44200 fluorescence intensity (a.u.); 3: 53200 fluorescence intensity (a.u.); 4: 30500 fluorescence intensity (a.u.); 5: 61800 fluorescence intensity (a.u.); 6: 10000 fluorescence intensity (a.u.); 7: 29800 fluorescence intensity (a.u.)

For each of the items listed, what is its binding signal?
1. GGTCCAATCAACATGAATAACAAAACAAAGGAAATGGATTCGGAGTCACCTAGTGCAG
2. TAAGTAATTAATTAATCAATCAATTAATCAATTATTATCCCGGAGTCACCTAGTGCAG
3. GCTACAATAATTAATCAATTAATTAAATTAAATTAAGTGGCGGAGTCACCTAGTGCAG
4. CTAATTAATTTGTTCCCTTAATTGGCACTTTGAATCTAAGCGGAGTCACCTAGTGCAG
5. AATTAATTATCATCATTACCGCAAATTCTCAAAAGTCAGGCGGAGTCACCTAGTGCAG
6. ATAAATGATTGGAGGATTTGTTGTGACTTTTCCACAATGTCGGAGTCACCTAGTGCAG
7. GATGATAAATTAAGTCACAATAAATAAATAATAATAATATCGGAGTCACCTAGTGCAG

1. 17100 fluorescence intensity (a.u.)
2. 52600 fluorescence intensity (a.u.)
3. 55300 fluorescence intensity (a.u.)
4. 58300 fluorescence intensity (a.u.)
5. 41200 fluorescence intensity (a.u.)
6. 58200 fluorescence intensity (a.u.)
7. 5820 fluorescence intensity (a.u.)

For each of the items listed, what is its binding signal?
1. GTTGATTGGGTAAATCATATGATCGTAATGTATTGTGAATCGGAGTCACCTAGTGCAG
2. TTTAATCACAAGCAAATCAATTAACTCATCCATACTCATCCGGAGTCACCTAGTGCAG
3. CAGCCCTTAATTGAATTTGGCCCAGCTAGTTCCCGGGCCCCGGAGTCACCTAGTGCAG

["64600 fluorescence intensity (a.u.)", "24200 fluorescence intensity (a.u.)", "30600 fluorescence intensity (a.u.)"]
